Origin of the recorded values: ChEMBL document CHEMBL1130816

Test system: Streptococcus pyogenes
assay-method-text: Compound was evaluated for antibacterial activity against Streptococcus pyogenes (MB2874) sensitive strain
Assay type: functional
value-type: MIC (µg/mL)

Here is how some molecules turned out for MIC.
| compound-structure | target-of-assay | unit-descriptor | observed-value |
| --- | --- | --- | --- |
| CC[C@H]1OC(=O)[C@H](C)[C@@H](O[C@H]2C[C@@](C)(OC)[C@@H](O)[C@@H](C)O2)[C@H](C)[C@@H](O[C@@H]2O[C@H](C)C[C@@H](N(C)C)[C@H]2O)[C@](C)(OC)C[C@@H](C)CN(C)[C@H](C)[C@@H](O)[C@]1(C)O | Streptococcus pyogenes | µg/mL | 0.12 |
| CC[C@H]1OC(=O)[C@H](C)[C@@H](O[C@H]2C[C@@](C)(OC)[C@@H](O)[C@@H](C)O2)[C@H](C)[C@@H](O[C@@H]2O[C@H](C)C[C@@H](N(C)C)[C@H]2O)[C@](C)(OC)C[C@@H](C)N(C)C[C@H](C)[C@@H](O)[C@]1(C)O | Streptococcus pyogenes | µg/mL | 0.06 |
| CC[C@H]1OC(=O)[C@H](C)[C@@H](O[C@H]2C[C@@](C)(OC)[C@@H](O)[C@H](C)O2)[C@H](C)[C@@H](O[C@@H]2O[C@H](C)C[C@H](N(C)C)[C@H]2O)[C@](C)(O)C[C@@H](C)CN(C)[C@H](C)[C@@H](O)[C@]1(C)O | Streptococcus pyogenes | µg/mL | 0.03 |

[I] CC[C@H]1OC(=O)[C@H](C)[C@@H](O[C@H]2C[C@@](C)(OC)[C@@H](OC)[C@@H](C)O2)[C@H](C)[C@@H](O[C@@H]2O[C@H](C)C[C@@H](N(C)C)[C@H]2O)[C@](C)(O)C[C@@H](C)N(C)C[C@H](C)[C@@H](O)[C@]1(C)O
[II] CC[C@H]1OC(=O)[C@H](C)[C@@H](O[C@H]2C[C@@](C)(OC)[C@@H](OC)[C@@H](C)O2)[C@H](C)[C@@H](O[C@@H]2O[C@H](C)C[C@@H](N(C)C)[C@H]2O)[C@](C)(O)C[C@@H](C)N(C)C[C@H](C)[C@@H](OC)[C@]1(C)OC
Hey, between I and II which has a smaller measured MIC? Write down the label of the entry you select. I

* * *

System: Streptococcus pyogenes
assay-method-text: Compound was evaluated for antibacterial activity against Streptococcus pyogenes (MB2874) sensitive strain
Assay type: functional
value-type: MIC (µg/mL)
A number alone suffices; assume µg/mL.

Which MIC value belongs to `CC[C@H]1OC(=O)[C@H](C)[C@@H](O[C@H]2C[C@@](C)(OC)[C@@H](OC)[C@@H](C)O2)[C@H](C)[C@@H](O[C@@H]2O[C@H](C)C[C@@H](N(C)C)[C@H]2O)[C@](C)(OC)C[C@@H](C)N(C)C[C@H](C)[C@@H](OC)[C@]1(C)OC` ? 0.5
